B1: Lysine-specific demethylase 2B, residues 656 to 722; numbered along this chain, Q8NHM5 (parent)
chain: LPHTAVCLVCGEAGKEDTVEEEEGKFNLMLMECSICNEIIHPGCLKIKESEGVVNDELPNCWECPKC

# Variants of: B1
# experiment-notes: abundance fitness (aPCA) (normalised: wild type 0, dead -1); higher = more abundant; growth selection in yeast, the domain comes from the species named
# condition-label: Homo sapiens
Item-by-item account of abundance fitness
Lab note: jot down the number only; don't add units.

D17N | -0.035

IN: Suppose we examine the variant G52F ; what abundance fitness value has been reported?
OUT: -0.028

IN: Check E21F too.
OUT: -0.559

IN: Check C44R too.
OUT: -0.709

IN: Check S34K too.
OUT: -0.021

IN: Check I35K too.
OUT: -0.057

IN: Check C36W too.
OUT: -1.38

IN: Check F26V too.
OUT: -0.164

IN: Check P2G too.
OUT: 0.588

IN: Check K15E too.
OUT: -0.175

IN: Check L45R too.
OUT: -0.002

IN: Check C44P too.
OUT: -0.722
